Target: rat collagen (acid soluble, type I, rat tail, Upstate 08-115) (rat) (UniProt P02454)
Sequence (P02454 152-1207, chain 1 of 2): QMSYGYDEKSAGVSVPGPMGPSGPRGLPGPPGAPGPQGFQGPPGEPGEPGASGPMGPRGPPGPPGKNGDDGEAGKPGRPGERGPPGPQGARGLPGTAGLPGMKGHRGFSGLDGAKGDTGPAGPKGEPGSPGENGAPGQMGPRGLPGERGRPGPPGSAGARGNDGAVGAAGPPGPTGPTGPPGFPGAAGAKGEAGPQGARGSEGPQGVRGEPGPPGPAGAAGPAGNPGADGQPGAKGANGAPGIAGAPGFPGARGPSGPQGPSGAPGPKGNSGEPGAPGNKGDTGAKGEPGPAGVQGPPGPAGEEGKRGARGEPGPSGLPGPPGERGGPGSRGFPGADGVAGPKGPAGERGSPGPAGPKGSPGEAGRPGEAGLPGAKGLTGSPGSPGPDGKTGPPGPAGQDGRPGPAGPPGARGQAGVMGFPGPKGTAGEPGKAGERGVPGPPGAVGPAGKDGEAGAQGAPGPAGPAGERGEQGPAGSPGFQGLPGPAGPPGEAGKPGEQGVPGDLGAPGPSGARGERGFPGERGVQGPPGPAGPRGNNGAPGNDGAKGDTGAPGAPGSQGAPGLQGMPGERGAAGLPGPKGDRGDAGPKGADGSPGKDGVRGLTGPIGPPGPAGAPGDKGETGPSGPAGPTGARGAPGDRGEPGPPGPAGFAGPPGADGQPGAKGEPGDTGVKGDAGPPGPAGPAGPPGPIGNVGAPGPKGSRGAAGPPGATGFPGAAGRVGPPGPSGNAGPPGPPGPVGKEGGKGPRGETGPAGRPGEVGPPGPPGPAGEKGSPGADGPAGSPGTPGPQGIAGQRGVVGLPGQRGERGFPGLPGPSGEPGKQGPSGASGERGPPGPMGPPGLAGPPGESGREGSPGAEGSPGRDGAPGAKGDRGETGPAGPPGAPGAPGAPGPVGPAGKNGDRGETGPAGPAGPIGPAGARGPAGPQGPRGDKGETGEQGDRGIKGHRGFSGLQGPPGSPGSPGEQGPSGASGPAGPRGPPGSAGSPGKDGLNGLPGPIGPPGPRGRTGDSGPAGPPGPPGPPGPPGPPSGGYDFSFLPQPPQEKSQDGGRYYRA
Sequence (P02466 86-1125, chain 2 of 2, further chain): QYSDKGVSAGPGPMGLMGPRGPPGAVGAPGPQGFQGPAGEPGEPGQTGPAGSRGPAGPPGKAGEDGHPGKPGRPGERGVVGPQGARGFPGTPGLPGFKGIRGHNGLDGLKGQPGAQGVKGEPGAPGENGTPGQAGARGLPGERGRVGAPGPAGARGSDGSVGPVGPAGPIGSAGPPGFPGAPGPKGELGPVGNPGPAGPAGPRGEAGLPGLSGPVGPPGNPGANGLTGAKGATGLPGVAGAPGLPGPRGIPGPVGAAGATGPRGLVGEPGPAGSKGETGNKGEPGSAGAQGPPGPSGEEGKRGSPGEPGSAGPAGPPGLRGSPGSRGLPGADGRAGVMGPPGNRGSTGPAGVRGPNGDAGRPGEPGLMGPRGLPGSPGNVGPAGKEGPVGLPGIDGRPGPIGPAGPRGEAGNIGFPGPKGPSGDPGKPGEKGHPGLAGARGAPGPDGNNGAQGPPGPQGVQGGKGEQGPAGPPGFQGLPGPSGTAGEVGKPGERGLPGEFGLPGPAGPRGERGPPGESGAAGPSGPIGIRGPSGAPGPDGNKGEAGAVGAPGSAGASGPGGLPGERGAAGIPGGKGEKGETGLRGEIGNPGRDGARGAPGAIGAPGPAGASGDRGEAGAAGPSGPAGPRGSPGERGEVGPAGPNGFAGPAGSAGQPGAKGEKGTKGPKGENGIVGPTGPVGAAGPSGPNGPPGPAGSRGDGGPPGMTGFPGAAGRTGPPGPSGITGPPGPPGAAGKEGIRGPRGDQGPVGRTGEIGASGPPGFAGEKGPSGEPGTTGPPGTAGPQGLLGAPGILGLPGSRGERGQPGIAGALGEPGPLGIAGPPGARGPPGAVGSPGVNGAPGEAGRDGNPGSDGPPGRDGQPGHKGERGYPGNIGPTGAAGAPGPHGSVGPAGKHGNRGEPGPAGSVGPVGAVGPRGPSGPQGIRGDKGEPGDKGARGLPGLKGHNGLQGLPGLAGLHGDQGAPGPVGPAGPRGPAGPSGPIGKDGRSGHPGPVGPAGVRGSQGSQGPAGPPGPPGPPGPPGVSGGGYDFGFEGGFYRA
Experiment: dried collagen assay, 5 uM each
Rat binding overview
Supply the numeric figure in %, leaving out any unit text.

Examples with their reported Rat binding follow.
GKWHCTTYFPHHYCVYG [Compound ID 942]
67
KKGQWHCTTYFPHHYCLYG [Compound ID 960]
34
GQWHCTTDYPHHYCLYG [Compound ID 895]
0
GQWTCSGDEYAWHCNYE [Compound ID 832]
4

Fill in the blank: the reported Rat binding of GQWTCSGDEYTWHCNYA [Compound ID 841] is ____. 28

Now the binder KKWHCYTYFPHHYCLYG [Compound ID 802] 45

Now the binder KKGWHCYTYFPHHYCTYG [Compound ID 1015] 30
